All values here come from ChEMBL document CHEMBL4411316.

Answer each item with its documented Activity.
Assay: Antioxidant activity assessed as DPPH radical scavenging activity at 20 uM incubated for 30 mins under dark condition relative to control
Format: functional
Numbers only, in %.

Completed entries (count: 4):
test_smiles	units_symbol	obs_value
O=C(/C=C/C=C/c1cc(O)c(O)c(O)c1)N1CCCCC1	%	71.3
O=C(/C=C/C=C/c1ccc(O)c(O)c1)N1CCCCC1	%	76.8
COc1cc(OC)c(/C=C/C=C/C(=O)N2CCCCC2)c(OC)c1	%	3.6
O=C(/C=C/C=C/C=C/c1ccc2c(c1)OCO2)N1CCCCC1	%	0.9

Then there is this compound:
Qu. // Activity lookup, key: O=C1O[C@H]([C@@H](O)CO)C(O)=C1O
Ans. 80.1

---

Molecular target: Polyunsaturated fatty acid 5-lipoxygenase (Homo sapiens) (UniProt P09917)
Assay: Inhibition of recombinant human 5-LOX expressed in Escherichia coli at 20 uM using arachidonic acid as substrate by UV-vis spectrophotometric method relative to control
value_kind: inhibition (%)
One number for each entry, in %.

test_smiles	experimental_system	value_kind	obs_value
COc1ccc(/C=C/C=C/C(=O)N2CCCCC2)cc1	Polyunsaturated fatty acid 5-lipoxygenase (Homo sapiens) (UniProt P09917)	inhibition	42.6
O=C(/C=C/C=C/c1ccc2c(c1)OCO2)N1CCCCC1	Polyunsaturated fatty acid 5-lipoxygenase (Homo sapiens) (UniProt P09917)	inhibition	47.5
CN(C)c1ccc(/C=C/C=C/C=C/C(=O)N2CCCCC2)cc1	Polyunsaturated fatty acid 5-lipoxygenase (Homo sapiens) (UniProt P09917)	inhibition	27.4

Quick batch: inhibition for everything below.
1. COc1cc(/C=C/C=C/C(=O)N2CCCCC2)cc(OC)c1
2. O=C(/C=C/C=C/c1cc(O)c(O)c(O)c1)N1CCCCC1
3. O=C(/C=C/C=C/c1ccc(Cl)cc1)N1CCCCC1
4. O=C(/C=C/c1ccc2c(c1)OCO2)N1CCCCC1
5. COc1ccc(/C=C/C=C/C=C/C(=O)N2CCCCC2)cc1

Ans.
[64.9, 82.5, 14.5, 39.9, 1.08]

Quick batch: inhibition for everything below.
1. O=C(/C=C/C=C/c1ccc(O)cc1)N1CCCCC1
2. O=C(/C=C/C=C/c1ccccc1)N1CCCCC1

Ans.
1. 44.4
2. 36.3

Quick batch: inhibition for everything below.
1. CSc1ccc(/C=C/C=C/C(=O)N2CCCCC2)cc1
2. O=C(/C=C/C=C/c1ccc(F)cc1)N1CCCCC1
3. CN(C)c1ccc(/C=C/C=C/C(=O)N2CCCCC2)cc1
4. O=C(/C=C/C=C/c1ccc(OC2CCCC2)cc1)N1CCCCC1
5. O=C(/C=C/c1ccc(O)c(O)c1)N1CCCCC1
6. COc1cc(OC)c(/C=C/C=C/C(=O)N2CCCCC2)c(OC)c1

Ans.
1. 11.8
2. 48.7
3. 13.4
4. 16.1
5. 55.2
6. 77.1

---

Answer each item with its documented pIC50.
Biological target: Polyunsaturated fatty acid 5-lipoxygenase (Homo sapiens)
Sequence (P09917 whole entry): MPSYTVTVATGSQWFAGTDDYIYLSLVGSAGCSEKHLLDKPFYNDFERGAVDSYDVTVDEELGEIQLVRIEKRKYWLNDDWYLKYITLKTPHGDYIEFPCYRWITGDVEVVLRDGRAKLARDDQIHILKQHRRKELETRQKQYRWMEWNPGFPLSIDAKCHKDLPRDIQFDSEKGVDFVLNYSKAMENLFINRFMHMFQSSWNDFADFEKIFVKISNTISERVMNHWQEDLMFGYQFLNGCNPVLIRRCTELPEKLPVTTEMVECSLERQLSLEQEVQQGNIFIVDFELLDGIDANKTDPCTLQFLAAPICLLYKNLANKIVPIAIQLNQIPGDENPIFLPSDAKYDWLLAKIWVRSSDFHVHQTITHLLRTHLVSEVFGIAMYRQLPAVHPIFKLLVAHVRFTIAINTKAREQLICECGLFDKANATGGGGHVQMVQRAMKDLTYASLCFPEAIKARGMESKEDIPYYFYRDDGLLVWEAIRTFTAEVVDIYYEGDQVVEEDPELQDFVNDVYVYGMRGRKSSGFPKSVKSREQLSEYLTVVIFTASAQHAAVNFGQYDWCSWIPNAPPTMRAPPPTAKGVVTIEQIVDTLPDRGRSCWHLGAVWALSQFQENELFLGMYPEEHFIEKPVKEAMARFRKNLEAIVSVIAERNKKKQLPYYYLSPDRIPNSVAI
Test: Inhibition of human 5-LOX using arachidonic acid as substrate measured after 10 mins by ELISA
Answers are plain numbers, as −log10 of the molar value.

compound	experimental_system	pIC50
COc1cc(/C=C/c2ccc(O)cc2)cc(OC)c1 [PTEROSTILBENE]	Polyunsaturated fatty acid 5-lipoxygenase (Homo sapiens)	5.03

Then there is this compound:
Qu. // pIC50 lookup, key: Oc1cc(O)cc(/C=C/c2ccc(O)cc2O)c1 [OXYRESVERATROL]
Ans. 4.73

---

Molecular target: Polyunsaturated fatty acid 5-lipoxygenase (Homo sapiens)
Experiment: Inhibition of recombinant human 5-LOX expressed in Escherichia coli at 20 uM using arachidonic acid as substrate by UV-vis spectrophotometric method relative to control
Rule: inhibition of 40% or more gives MET; anything lower gives NOT MET.

Illustrative cases are given below, each with its answer.
test_smiles	group_label
COc1cc(/C=C/C=C/C(=O)N2CCCCC2)ccc1O	MET
COc1cc(/C=C/C=C/C(=O)N2CCCCC2)cc(OC)c1O	NOT MET
CC(=O)Oc1ccc(/C=C/C=C/C(=O)N2CCCCC2)cc1	NOT MET

Qu. Item O=C(/C=C/C=C/C=C/c1ccc2c(c1)OCO2)N1CCCCC1 with inhibition of 40% or above?
Ans. MET

Qu. Item COc1ccc(/C=C/C=C/C(=O)N2CCCCC2)c(OC)c1OC with inhibition of 40% or above?
Ans. NOT MET

Qu. Item O=C(/C=C/C=C/C=C/c1ccc(O)c(O)c1)N1CCCCC1 with inhibition of 40% or above?
Ans. NOT MET

Qu. Item COc1ccc(/C=C/C=C/C(=O)N2CCCCC2)cc1OC with inhibition of 40% or above?
Ans. MET

Qu. Item COc1cc(/C=C/C=C/C(=O)N2CCCCC2)cc(OC)c1OC with inhibition of 40% or above?
Ans. MET

Qu. Item O=C(/C=C/C=C/c1ccc(O)c(O)c1)N1CCCCC1 with inhibition of 40% or above?
Ans. MET
